Where do the numbers come from? From paper PMC6100582.

Quick list: pEC50 per entry.
System: Reovirus-1
measurementDescription: Antiviral activity in Vero cell cultures
Assay type: cell-based
conditionSummary: Vero cells, MTS; read-out: EC50 Reovirus-1, MTS
pEC50: −log10 of the molar value.
readoutType: pEC50

- NC(=O)c1ncn([C@@H]2O[C@H](CO)[C@@H](O)[C@H]2O)n1 [RIB, ribavirin, reference compound]: 3.97
- COc1cc(NC(C)CCCNC(=O)/C=C/C(=O)Nc2cccc(C(F)(F)F)c2)c2ncccc2c1 (centres unmarked): 5.51
- COc1c(C)c2c(c(O)c1C/C=C(\C)CCC(=O)O)C(=O)OC2 [MPA, mycophenolic acid, reference compound]: 6.22
- COc1cc(NC(C)CCCNC(=O)/C=C/C(=O)Nc2cccc(Cl)c2)c2ncccc2c1 (centres unmarked): 5.42

---

System: HCT-116 (colorectal carcinoma)
measurementDescription: Antiproliferative screening (cytostatic activity)
Type: cell-based
conditionSummary: Homo sapiens, HCT-116, 72 h, read-out: IC50 HCT-116
pIC50: −log10 of the molar value.
readoutType: pIC50

- COc1cc(NC(C)CCCN)c2ncccc2c1 (stereo not shown) [PQ, primaquine, reference compound]: 4.51

---

Test system: broad variety of viral infections
measurementDescription: Antiviral evaluation, broad variety of viruses
Assay type: cell-based
conditionSummary: reovirus-1, sindbis virus and Punta Toro virus; Vero cells; read-out: EC50 (range over viruses)
readoutType: EC50

- COc1cc(NC(C)CCCNC(=O)/C=C/C(=O)Nc2cccc(C(F)(F)F)c2)c2ncccc2c1 (centres unmarked): 3.1 to 5.5 µM
- COc1cc(NC(C)CCCNC(=O)/C=C/C(=O)Nc2cccc(Cl)c2)c2ncccc2c1 (centres unmarked): 3.1 to 5.5 µM

---

Test system: Bacillus subtilis ATCC 6633
measurementDescription: Minimum biofilm eradication assay
Type: cell-based
Overview of reported MBEC across a group of compounds:
readoutType: MBEC (µg/mL)

- COc1cc(NC(C)CCCNC(=O)/C=C/C(=O)Nc2cccc(Cl)c2)c2ncccc2c1 (stereo not shown) [Compound 4c]: 50
- COc1cc(NC(C)CCCNC(=O)/C=C/C(=O)Nc2ccc(F)cc2)c2ncccc2c1 (stereo not shown) [Compound 4b]: 25

---

readoutType: melting point

* COc1cc(NC(C)CCCNC(=O)/C=C/C(=O)Nc2cccc(F)c2)c2ncccc2c1 (centres unmarked) | 203 to 204 °C
* COc1cc(NC(C)CCCNC(=O)/C=C/C(=O)Nc2ccc(Cl)cc2)c2ncccc2c1 (centres unmarked) | 223 to 226 °C
* COc1cc(NC(C)CCCNC(=O)/C=C/C(=O)Nc2ccc(C(F)(F)F)cc2)c2ncccc2c1 (centres unmarked) | 189 to 191 °C
* COc1cc(NC(C)CCCNC(=O)/C=C/C(=O)Nc2cccc(C(F)(F)F)c2)c2ncccc2c1 (centres unmarked) | 149 to 150 °C
* COc1cc(NC(C)CCCNC(=O)CCC(=O)Nc2cccc(Cl)c2)c2ncccc2c1 (centres unmarked) | 156 to 158 °C
* COc1cc(NC(C)CCCNC(=O)/C=C/C(=O)Nc2ccc(F)cc2)c2ncccc2c1 (centres unmarked) | 226 to 227 °C
* COc1cc(NC(C)CCCNC(=O)CCC(=O)Nc2cccc(F)c2)c2ncccc2c1 (centres unmarked) | 140 to 142 °C
* COc1cc(NC(C)CCCNC(=O)CCC(=O)Nc2ccc(C(F)(F)F)cc2)c2ncccc2c1 (centres unmarked) | 163 to 165 °C

---

Test system: Yellow Fever Virus
measurementDescription: microbe, parasite or virus in culture
Type: cell-based
conditionSummary: Vero, read-out: EC50 Yellow Fever Virus, MTS
Below is a list of entries, each paired with its recorded EC50 value.
readoutType: EC50

• NC(=O)c1ncn([C@@H]2O[C@H](CO)[C@@H](O)[C@H]2O)n1 [RIB, ribavirin, reference compound] = 119 µM
• COc1cc(NC(C)CCCNC(=O)/C=C/C(=O)Nc2cccc(F)c2)c2ncccc2c1 (stereo not drawn) = > 50 µM
• COc1cc(NC(C)CCCNC(=O)/C=C/C(=O)Nc2cccc(Cl)c2)c2ncccc2c1 (stereo not drawn) = > 50 µM
• COc1cc(NC(C)CCCNC(=O)/C=C/C(=O)Nc2ccc(C(F)(F)F)cc2)c2ncccc2c1 (stereo not drawn) = > 50 µM
• COc1cc(NC(C)CCCN)c2ncccc2c1 (stereo not drawn) [PQ, primaquine, reference compound] = > 50 µM
• COc1cc(NC(C)CCCNC(=O)/C=C/C(=O)Nc2ccc(F)cc2)c2ncccc2c1 (stereo not drawn) = > 50 µM
• COc1cc(NC(C)CCCNC(=O)/C=C/C(=O)Nc2ccc(Cl)cc2)c2ncccc2c1 (stereo not drawn) = > 50 µM
• COc1c(C)c2c(c(O)c1C/C=C(\C)CCC(=O)O)C(=O)OC2 [MPA, mycophenolic acid, reference compound] = 0.5 µM
• COc1cc(NC(C)CCCNC(=O)/C=C/C(=O)Nc2cccc(C(F)(F)F)c2)c2ncccc2c1 (stereo not drawn) = > 50 µM

---

Test system: Punta Toro Virus
measurementDescription: microbe, parasite or virus in culture
Format: cell-based
conditionSummary: Vero, read-out: EC50 Punta Toro Virus, MTS
readoutType: EC50 (µM)

• NC(=O)c1ncn([C@@H]2O[C@H](CO)[C@@H](O)[C@H]2O)n1 [RIB, ribavirin, reference compound] = 85

---

System: K-562 (chronic myeloid leukemia)
measurementDescription: Antiproliferative screening (cytostatic activity)
Format: cell-based
conditionSummary: Homo sapiens, K562; 72 h, IncuCyte imaging; read-out: IC50 K-562
readoutType: IC50 (µM)

* COc1cc(NC(C)CCCNC(=O)/C=C/C(=O)Nc2cccc(C(F)(F)F)c2)c2ncccc2c1 (stereo not shown) | 71.2
* COc1cc([C@@H]2c3cc4c(cc3[C@@H](O[C@@H]3O[C@@H]5CO[C@@H](C)O[C@H]5[C@H](O)[C@H]3O)[C@H]3COC(=O)[C@H]23)OCO4)cc(OC)c1O [EPEG, etoposide, reference compound] | 0.01
* COc1cc(NC(C)CCCNC(=O)/C=C/C(=O)Nc2ccc(F)cc2)c2ncccc2c1 (stereo not shown) | 70.5
* COc1cc(NC(C)CCCNC(=O)/C=C/C(=O)Nc2cccc(F)c2)c2ncccc2c1 (stereo not shown) | 31.2

---

measurementDescription: in vitro
conditionSummary: African green monkey
Form field: CC50 (one value per entry).
readoutType: CC50

• COc1cc(NC(C)CCCNC(=O)/C=C/C(=O)Nc2ccc(C(F)(F)F)cc2)c2ncccc2c1 (stereo not shown) [Compound 4f] = > 50 µg/mL
• NC(=O)c1ncn([C@@H]2O[C@H](CO)[C@@H](O)[C@H]2O)n1 [RIB, ribavirin, reference compound] = > 250 µg/mL
• COc1cc(NC(C)CCCNC(=O)/C=C/C(=O)Nc2cccc(C(F)(F)F)c2)c2ncccc2c1 (stereo not shown) [Compound 4e] = > 50 µg/mL
• COc1c(C)c2c(c(O)c1C/C=C(\C)CCC(=O)O)C(=O)OC2 [MPA, mycophenolic acid, reference compound] = > 100 µg/mL

---

Here, each record is paired with measured EC50 data.
Tested on: Reovirus-1
measurementDescription: Antiviral activity in Vero cell cultures
Assay type: cell-based
conditionSummary: Vero cells, MTS; read-out: EC50 Reovirus-1, MTS
readoutType: EC50

* COc1cc(NC(C)CCCNC(=O)/C=C/C(=O)Nc2ccc(Cl)cc2)c2ncccc2c1 (stereo not shown) | > 50 µM
* COc1cc(NC(C)CCCNC(=O)/C=C/C(=O)Nc2cccc(F)c2)c2ncccc2c1 (stereo not shown) | > 50 µM
* COc1cc(NC(C)CCCNC(=O)/C=C/C(=O)Nc2ccc(F)cc2)c2ncccc2c1 (stereo not shown) | > 50 µM
* COc1cc(NC(C)CCCNC(=O)/C=C/C(=O)Nc2ccc(C(F)(F)F)cc2)c2ncccc2c1 (stereo not shown) | > 50 µM

---

System: K-562 (chronic myeloid leukemia)
measurementDescription: Antiproliferative screening (cytostatic activity)
Format: cell-based
conditionSummary: Homo sapiens, K562; 72 h, IncuCyte imaging; read-out: IC50 K-562
pIC50: −log10 of the molar value.
A collection of compounds and their measured pIC50
readoutType: pIC50

• COc1cc(NC(C)CCCNC(=O)/C=C/C(=O)Nc2ccc(C(F)(F)F)cc2)c2ncccc2c1 (stereo not drawn) [Compound 4f] = < 4.00
• COc1cc(NC(C)CCCNC(=O)/C=C/C(=O)Nc2cccc(Cl)c2)c2ncccc2c1 (stereo not drawn) [Compound 4c] = < 4.00
• COc1cc(NC(C)CCCNC(=O)/C=C/C(=O)Nc2ccc(Cl)cc2)c2ncccc2c1 (stereo not drawn) [Compound 4d] = < 4.00
